# test system: T1, cynomolgus monkey CD38 extracellular domain (ECD), tagged (cynomolgus monkey, Avitag biotinylated (in the ELISAs))
# T1 construct: also called cynomolgus monkey CD38 ED
# T1 chain: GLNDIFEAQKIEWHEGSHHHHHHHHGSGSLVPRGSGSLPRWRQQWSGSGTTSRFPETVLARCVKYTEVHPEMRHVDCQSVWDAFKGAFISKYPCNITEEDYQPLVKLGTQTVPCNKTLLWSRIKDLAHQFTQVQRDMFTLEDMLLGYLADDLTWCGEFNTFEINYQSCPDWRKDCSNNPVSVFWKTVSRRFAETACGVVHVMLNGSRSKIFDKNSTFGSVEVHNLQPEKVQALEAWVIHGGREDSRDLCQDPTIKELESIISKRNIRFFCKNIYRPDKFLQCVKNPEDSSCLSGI
# method summary: SPR (Biacore T200), antibody captured on Protein A, CD38 ED as analyte, 1:1 Langmuir fit;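 further: CM5 sensor chip in HBS-P buffer at pH 7.4, antibody loaded at 5 µg/mL, responses corrected against a blank reference flow cell before fitting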
Field: koff. Provide a value for each of the binders that follow.
Answers are plain numbers, in s⁻¹.

The reported koff of the binder R5D1 IgG1 (antibody, V domains shown, chimeric rat-human IgG1) VH: EVQLQQSGPEVGRPGSSVKISCKASGYTFTDYIMHWVKQSPGQGLEWIGWIDPEYGRTDYAEKFKKKATLTADTSSSTAYIQLSSLASEDTATYFCARSAHTTGFGFAYWGQGTLVTVSS VL: DIQMTQSPASLSASLGETVTIECRASEDIYSNLAWYQQKPGNSPQLLIYDANSLADGVPSRFSASGSGTQFSLKINSLRSEDVASYFCQQYNNYPYTFGAGTKLELKR was 0.0011

The reported koff of the binder X355/02 IgG1 (antibody, V domains shown, human IgG1 from phage-derived Fab) VH: QLQLQESGPGLVKPSETLSLTCTVSGGSISSSSYYWSWIRQHPGKGLEWIGYIYYSGSTNYNPSLKSRVTISVDTLKNQISLRLTSVTAADTAVYYCARVGGAGGWPMDVWGQGTTVTVSS VL: QAVLTQPASLSASPGESARLTCTLPSDINVRYYNIYWYQQKPGSPPRYLLYYYSDSHKGQGSGVPSRFSGSKDVSTNSGILLISGLQSEDEADYYCMTWSSNGSGVFGGGTQLTVLG was 0.00228

The reported koff of the binder R5E8 IgG1 (antibody, V domains shown, chimeric rat-human IgG1) VH: EVQLQQSGPEVGRPGSSVKISCKASGYIFTDYIMHWVKQSPGQGLEWIGWIDPEYGSTDYAEKFKKKATLTADTSSSTAYIQLSSLTSEDTATYFCARVAIITTVASGGFAYWGQGTLVTVSS VL: DIVMTQGALPNPVPSGESASITCQSSESLLHSNGKTYLNWYLQRPGQSPQLLIYWMSTRAAGVSDRFSGSGSGTDFTLTISGVEAEDVGVYYCQQFLEYPPTFGSGTKLEIKR was 0.0019

Further cases:
The reported koff of the binder R10A2 IgG1 (antibody, V domains shown, chimeric rat-human IgG1) VH: EVQLQQSGPEVGRPGSSVKISCKASGYTFTDSVMNWVKQSPGQGLEWIGWIDPEYGRTDVAEKFKKKATLTADSSSSTAYIYLSGLTSEDTATYFCARTKYNSGYGFPYWGQGSLVTVSS VL: DIVMTQSPTSISISVGERVTMNCKASQNVDSDVDWYQQKTGQSPKLLIYKASNRYTGVPDRFTGSGSGTDFTFTISNMQAEDLAVYYCMQSNTHPRTFGGGTKLELKR was 0.00193
